Molecular target: Neuromedin-K receptor (Homo sapiens, UniProt P29371)
Sequence (P29371 whole entry): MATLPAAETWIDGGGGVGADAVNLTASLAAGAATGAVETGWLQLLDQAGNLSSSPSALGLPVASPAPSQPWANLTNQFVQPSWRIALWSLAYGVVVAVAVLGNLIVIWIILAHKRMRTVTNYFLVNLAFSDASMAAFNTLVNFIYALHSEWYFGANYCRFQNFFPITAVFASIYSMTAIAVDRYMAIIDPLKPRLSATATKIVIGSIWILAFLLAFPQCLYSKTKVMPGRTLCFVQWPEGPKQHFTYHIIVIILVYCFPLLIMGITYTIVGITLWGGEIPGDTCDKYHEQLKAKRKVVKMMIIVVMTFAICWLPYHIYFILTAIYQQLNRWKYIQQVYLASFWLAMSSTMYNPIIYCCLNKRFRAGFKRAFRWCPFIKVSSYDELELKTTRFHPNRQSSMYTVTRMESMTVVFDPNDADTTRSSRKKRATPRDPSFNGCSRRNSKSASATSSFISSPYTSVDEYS
Observed Property: Ki (nM)
Express your answer in nM, writing the number without its unit.

Here is how some compounds turned out for Ki.
CNC(=O)C1(N2CCCCC2=O)CCN(CC[C@H](CN(C)C(=O)c2c(OC)c(C#N)cc3ccccc23)c2ccc(Cl)c(Cl)c2)CC1; 9.4
CCN1C(=O)c2ccccc2[C@H]1[C@@H](CCN1CCC(c2ccccc2[S@+](C)[O-])CC1)c1ccc(Cl)c(Cl)c1; 9190

Next:
Problem: Look at this compound and give its reported Ki. COc1c(C#N)cc2ccccc2c1C(=O)N(C)C[C@@H](CCN1CCC(c2ccccc2[S@+](C)[O-])CC1)c1ccc(Cl)c(Cl)c1
Result: 220

###

Reported bioavailability values follow for various molecules
Experiment: Bioavailability in rat (dose 1-10 uM/kg i.v.)
Assay type: ADME, organism-based
Details: in vivo, iv
Express your answer in %, writing the number without its unit.

Here is how some molecules turned out for bioavailability.
CN(C[C@@H](CCN1CCC(c2ccccc2[S@+](C)[O-])CC1)c1ccc(Cl)c(Cl)c1)C(=O)c1cc(C#N)cc2ccccc12; 9
COc1ccc(C2CCN(CC[C@H](CN(C)C(=O)c3cc(C#N)cc4ccccc34)c3ccc(Cl)c(Cl)c3)CC2)c([S@+](C)[O-])c1; 7

Next:
Problem: Look at this molecule and give its reported bioavailability. COc1c(C#N)cc2ccccc2c1C(=O)N(C)C[C@@H](CCN1CCC(c2ccccc2[S@+](C)[O-])CC1)c1ccc(Cl)c(Cl)c1
Result: 12

###

Reported pKB values follow for various compounds
Test system: Substance-P receptor (Oryctolagus cuniculus)
Assay: Tested for the binding affinity towards tachykinin receptor 1 (NK1) in rabbit pulmonary artery tissue
Lab note: record the figure alone, no unit after it.

CN(C[C@@H](CCN1CCC(N2CCCNC2=O)CC1)c1ccc(Cl)c(Cl)c1)C(=O)c1cc(C#N)cc2ccccc12; 8.18
COc1c(C#N)cc2ccccc2c1C(=O)N(C)C[C@@H](CCN1CCC(C(=O)N(C)C)(N2CCCCC2=O)CC1)c1ccc(Cl)c(Cl)c1; 7.88

Next:
Problem: Value wanted: pKB (Substance-P receptor (Oryctolagus cuniculus)) of entry CN(C[C@@H](CCN1CCC(c2ccccc2[S@+](C)[O-])CC1)c1ccc(Cl)c(Cl)c1)C(=O)c1cc(C#N)c(Br)c2ccccc12
Result: 7.78

###

Target: Substance-K receptor (Homo sapiens, UniProt P21452)
Sequence (P21452 whole entry): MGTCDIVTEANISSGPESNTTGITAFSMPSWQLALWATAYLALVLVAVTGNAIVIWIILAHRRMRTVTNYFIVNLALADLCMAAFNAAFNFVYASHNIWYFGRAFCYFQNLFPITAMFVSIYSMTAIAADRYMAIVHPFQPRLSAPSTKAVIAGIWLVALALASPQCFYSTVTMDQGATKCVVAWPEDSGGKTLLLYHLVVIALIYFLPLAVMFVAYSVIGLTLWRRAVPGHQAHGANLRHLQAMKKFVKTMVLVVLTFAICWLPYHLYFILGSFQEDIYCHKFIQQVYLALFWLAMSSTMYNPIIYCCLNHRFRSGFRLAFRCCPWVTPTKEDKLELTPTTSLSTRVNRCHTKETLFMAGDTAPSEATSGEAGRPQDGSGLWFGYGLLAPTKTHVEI
Test: Inhibition of binding of [3H]NKA to human Tachykinin receptor 2 (NK2) expressed in mouse erythroleukemia cells
Type: cell-based
Reported pKi values follow for various compounds
Lab note — pKi values are minus log10 of concentrations in M.

Here is how some compounds turned out for pKi.
CNC(=O)C1(N2CCCCC2=O)CCN(CC[C@H](CN(C)C(=O)c2c(OC)c(C#N)cc3ccccc23)c2ccc(Cl)c(Cl)c2)CC1; 7.46
CN(C[C@@H](CCN1CCC(c2ccccc2[S@+](C)[O-])CC1)c1ccc(Cl)c(Cl)c1)C(=O)c1cc(C#N)cc2ccccc12; 9.19
CCN1C(=O)c2ccccc2[C@H]1[C@@H](CCN1CCC(c2ccccc2[S@+](C)[O-])CC1)c1ccc(Cl)c(Cl)c1; 9.04

Problem: Value wanted: pKi (Substance-K receptor (Homo sapiens, UniProt P21452)) of entry COc1c(C#N)cc2ccccc2c1C(=O)N(C)C[C@@H](CCN1CCC(c2ccccc2[S@+](C)[O-])CC1)c1ccc(Cl)c(Cl)c1
Result: 7.17

###

Biological target: Substance-K receptor (Oryctolagus cuniculus) (UniProt P79218)
Sequence (P79218 whole entry): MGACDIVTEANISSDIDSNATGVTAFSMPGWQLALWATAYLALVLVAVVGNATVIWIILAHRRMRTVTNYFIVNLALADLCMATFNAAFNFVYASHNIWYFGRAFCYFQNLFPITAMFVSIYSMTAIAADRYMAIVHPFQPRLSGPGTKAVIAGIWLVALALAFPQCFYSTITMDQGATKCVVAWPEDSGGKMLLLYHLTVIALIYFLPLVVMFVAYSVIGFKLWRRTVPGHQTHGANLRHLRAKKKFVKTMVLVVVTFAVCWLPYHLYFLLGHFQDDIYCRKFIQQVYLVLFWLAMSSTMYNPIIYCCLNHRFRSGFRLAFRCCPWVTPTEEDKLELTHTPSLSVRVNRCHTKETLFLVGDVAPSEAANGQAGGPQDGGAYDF
Experiment: Tested for the binding affinity towards tachykinin receptor 2 (NK2) in rabbit pulmonary artery tissue
Observed Property: pKB
Lab note: record the figure alone, no unit after it.

Here is how some molecules turned out for pKB.
CNC(=O)C1(N2CCCNC2=O)CCN(CC[C@H](CN(C)C(=O)c2c(OC)c(C#N)cc3ccccc23)c2ccc(Cl)c(Cl)c2)CC1; 8.11
CN(C[C@@H](CCN1CCC(c2ccccc2[S@+](C)[O-])CC1)c1ccc(Cl)c(Cl)c1)C(=O)c1cc(C#N)cc2ccccc12; 8.26
CN(C[C@@H](CCN1CCC(c2ccc(C(N)=O)cc2[S+](C)[O-])CC1)c1ccc(Cl)c(Cl)c1)C(=O)c1cc(C#N)cc2ccccc12 (mixture of isomers); 6.92

Problem: Look at this molecule and give its reported pKB. CN(C[C@@H](CCN1CCC(c2ccccc2[S@+](C)[O-])CC1)c1ccc(Cl)c(Cl)c1)C(=O)c1cc(C#N)cc2cc(O)ccc12
Result: 7.31

Problem: Request: COc1ccc2c(C(=O)N(C)C[C@@H](CCN3CCC(c4ccccc4[S@+](C)[O-])CC3)c3ccc(Cl)c(Cl)c3)cc(C#N)cc2c1
Result: 7.97

Problem: Request: CN(C[C@@H](CCN1CCC(c2ccccc2[S+](C)[O-])CC1)c1ccc(Cl)c(Cl)c1)C(=O)c1cc(C#N)cc2ccccc12 (mixture of isomers)
Result: 8.48

Problem: Request: COC(=O)c1ccc(C2CCN(CC[C@H](CN(C)C(=O)c3cc(C#N)cc4ccccc34)c3ccc(Cl)c(Cl)c3)CC2)c([S+](C)[O-])c1 (mixture of isomers)
Result: 6.84

Problem: Request: CN(C)C(=O)C1(N2CCCCC2=O)CCN(CC[C@H](CN(C)C(=O)c2cc(C#N)cc3ccccc23)c2ccc(Cl)c(Cl)c2)CC1
Result: 8.52

Problem: Request: CN(C[C@@H](CCN1CCC(c2ccc(F)cc2[S@+](C)[O-])CC1)c1ccc(Cl)c(Cl)c1)C(=O)c1cc(C#N)cc2ccccc12
Result: 8.38

###

Biological target: Substance-K receptor (Oryctolagus cuniculus) (UniProt P79218)
Experiment: Tested for the binding affinity towards tachykinin receptor 2 (NK2) in rabbit pulmonary artery tissue
Label n if pKB falls below 8; label y in every other case.

Consider the worked cases shown below.
CN(C[C@@H](CCN1CCC(c2ccc([S+](C)[O-])cc2[S+](C)[O-])CC1)c1ccc(Cl)c(Cl)c1)C(=O)c1cc(C#N)cc2ccccc12 (mixture of isomers); y
CN(C[C@@H](CCN1CCC(c2cc(F)ccc2[S+](C)[O-])CC1)c1ccc(Cl)c(Cl)c1)C(=O)c1cc(C#N)cc2ccccc12 (mixture of isomers); y
CN(C[C@@H](CCN1CCC(c2ccc(C(=O)O)cc2[S+](C)[O-])CC1)c1ccc(Cl)c(Cl)c1)C(=O)c1cc(C#N)cc2ccccc12 (mixture of isomers); n
CNC(=O)C1(N2CCCCC2=O)CCN(CC[C@H](CN(C)C(=O)c2cc(C#N)cc3ccccc23)c2ccc(Cl)c(Cl)c2)CC1; y
CN(C[C@@H](CCN1CCC(c2ccccc2[S@+](C)[O-])CC1)c1ccc(Cl)c(Cl)c1)C(=O)c1cc(C#N)c(C#N)c2ccccc12; n

Problem: Hi team, for CN(C[C@@H](CCN1CCC(c2ccccc2[S@+](C)[O-])CC1)c1ccc(Cl)c(Cl)c1)C(=O)c1cc(C#N)cc2cc(C#N)ccc12 , is the recorded pKB at or above 8?
Result: n

Problem: Request: CN(C[C@@H](CCN1CCC(c2ccccc2[S@+](C)[O-])CC1)c1ccc(Cl)c(Cl)c1)C(=O)c1cc(C#N)c(F)c2ccccc12
Result: n

Problem: Request: CN(C[C@@H](CCN1CCC(c2c(F)cccc2[S+](C)[O-])CC1)c1ccc(Cl)c(Cl)c1)C(=O)c1cc(C#N)cc2ccccc12 (stereo partly drawn)
Result: n

Problem: Request: COc1ccc(C2CCN(CC[C@H](CN(C)C(=O)c3cc(C#N)cc4ccccc34)c3ccc(Cl)c(Cl)c3)CC2)c([S@+](C)[O-])c1
Result: y

Problem: Request: COc1c(C#N)cc2ccccc2c1C(=O)N(C)C[C@@H](CCN1CCC(C(=O)N(C)C)(N2CCCCC2=O)CC1)c1ccc(Cl)c(Cl)c1
Result: n

Problem: Request: CN(C[C@@H](CCN1CCC(c2cc(Br)ccc2[S+](C)[O-])CC1)c1ccc(Cl)c(Cl)c1)C(=O)c1cc(C#N)cc2ccccc12 (mixture of isomers)
Result: y
